Hi there, I'd appreciate the recorded inhibition for every entry that follows.
Molecular target: Proto-oncogene tyrosine-protein kinase ROS (Homo sapiens) (UniProt P08922);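 note: value given is the mean percent inhibition of ROS kinase activity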
Sequence (P08922 whole entry): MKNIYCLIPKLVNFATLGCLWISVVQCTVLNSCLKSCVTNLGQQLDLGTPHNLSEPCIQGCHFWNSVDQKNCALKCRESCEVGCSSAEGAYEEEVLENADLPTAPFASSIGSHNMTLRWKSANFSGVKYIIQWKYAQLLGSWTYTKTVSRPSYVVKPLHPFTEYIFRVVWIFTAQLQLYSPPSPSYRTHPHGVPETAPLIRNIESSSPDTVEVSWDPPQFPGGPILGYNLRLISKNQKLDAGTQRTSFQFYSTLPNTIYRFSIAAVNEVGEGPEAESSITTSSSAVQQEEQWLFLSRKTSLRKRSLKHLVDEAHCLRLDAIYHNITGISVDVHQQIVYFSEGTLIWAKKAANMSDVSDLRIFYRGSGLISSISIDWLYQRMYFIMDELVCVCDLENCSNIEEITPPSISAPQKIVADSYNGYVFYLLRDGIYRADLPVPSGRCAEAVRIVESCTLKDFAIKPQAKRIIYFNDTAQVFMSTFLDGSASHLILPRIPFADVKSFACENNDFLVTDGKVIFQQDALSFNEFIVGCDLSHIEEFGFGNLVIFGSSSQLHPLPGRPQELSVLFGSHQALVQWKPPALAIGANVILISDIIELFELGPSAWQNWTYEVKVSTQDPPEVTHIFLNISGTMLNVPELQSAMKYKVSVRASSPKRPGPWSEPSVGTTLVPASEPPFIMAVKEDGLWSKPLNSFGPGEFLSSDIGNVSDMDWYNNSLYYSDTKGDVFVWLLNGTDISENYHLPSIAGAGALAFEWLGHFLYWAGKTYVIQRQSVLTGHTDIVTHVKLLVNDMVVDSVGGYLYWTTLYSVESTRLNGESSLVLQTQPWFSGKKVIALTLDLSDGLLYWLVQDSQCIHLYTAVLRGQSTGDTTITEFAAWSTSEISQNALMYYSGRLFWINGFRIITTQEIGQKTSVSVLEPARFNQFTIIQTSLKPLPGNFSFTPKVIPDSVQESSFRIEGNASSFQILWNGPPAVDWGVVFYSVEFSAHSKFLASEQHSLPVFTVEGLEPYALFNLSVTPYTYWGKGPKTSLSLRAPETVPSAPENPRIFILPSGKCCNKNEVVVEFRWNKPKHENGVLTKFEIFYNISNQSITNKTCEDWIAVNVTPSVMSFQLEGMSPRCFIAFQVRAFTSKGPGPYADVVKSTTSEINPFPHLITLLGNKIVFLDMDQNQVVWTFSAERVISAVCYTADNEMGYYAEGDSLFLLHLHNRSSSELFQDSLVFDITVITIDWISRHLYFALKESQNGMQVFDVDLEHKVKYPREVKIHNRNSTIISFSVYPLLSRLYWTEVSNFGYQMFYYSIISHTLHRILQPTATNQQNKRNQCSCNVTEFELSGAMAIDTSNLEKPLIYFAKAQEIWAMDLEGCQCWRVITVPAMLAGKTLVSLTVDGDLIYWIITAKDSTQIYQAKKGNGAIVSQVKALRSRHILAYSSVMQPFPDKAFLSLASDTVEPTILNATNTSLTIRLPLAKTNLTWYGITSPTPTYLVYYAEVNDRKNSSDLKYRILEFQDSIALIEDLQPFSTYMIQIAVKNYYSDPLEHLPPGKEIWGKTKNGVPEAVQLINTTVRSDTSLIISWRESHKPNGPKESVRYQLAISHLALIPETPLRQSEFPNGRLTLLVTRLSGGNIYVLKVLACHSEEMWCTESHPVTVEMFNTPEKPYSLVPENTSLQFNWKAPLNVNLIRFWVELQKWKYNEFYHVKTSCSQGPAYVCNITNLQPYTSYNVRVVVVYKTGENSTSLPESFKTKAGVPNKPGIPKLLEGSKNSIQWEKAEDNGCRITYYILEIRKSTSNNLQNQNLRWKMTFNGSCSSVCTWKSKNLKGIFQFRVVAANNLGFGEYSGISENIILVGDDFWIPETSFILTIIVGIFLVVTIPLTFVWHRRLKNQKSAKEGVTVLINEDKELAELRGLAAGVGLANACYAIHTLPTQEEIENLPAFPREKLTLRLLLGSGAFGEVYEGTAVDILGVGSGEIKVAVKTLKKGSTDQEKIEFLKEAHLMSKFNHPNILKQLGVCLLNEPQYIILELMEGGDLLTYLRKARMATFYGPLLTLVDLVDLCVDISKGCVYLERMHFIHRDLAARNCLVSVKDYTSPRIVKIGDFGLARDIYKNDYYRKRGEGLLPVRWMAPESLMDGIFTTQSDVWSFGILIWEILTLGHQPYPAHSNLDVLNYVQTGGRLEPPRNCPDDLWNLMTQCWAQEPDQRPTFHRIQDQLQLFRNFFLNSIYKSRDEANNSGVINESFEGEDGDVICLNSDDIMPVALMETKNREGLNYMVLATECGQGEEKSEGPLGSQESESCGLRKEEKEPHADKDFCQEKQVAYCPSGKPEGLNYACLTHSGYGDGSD
Conditions: at 1 µM
Expressed in %, but write only the number.

Query: inhibition; subject: `Cc1nn(C)c2cc(N(C)c3ccnc(Nc4cccc(S(N)(=O)=O)c4)n3)ccc12`
80.2

Query: inhibition; subject: `CN1CCC(C(=O)Nc2n[nH]c3nnc(-c4ccccc4)cc23)CC1`
9.8

Query: inhibition; subject: CC1=C(C(=O)Nc2ccc3[nH]ncc3c2)C(c2ccc(F)cc2)NC(=O)N1 (centres undefined)
29.2

Query: inhibition; subject: `CCn1c(-c2nonc2N)nc2cncc(C(=O)N3CCNCC3)c21`
7.97

###

Biological target: Insulin-like growth factor 1 receptor (Homo sapiens);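 note: values are mean percent inhibition of IGF1R kinase activity, from the GSK published kinase inhibitor set (PKIS) screening panel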
Conditions: at 0.1 µM
readoutKind: inhibition (%)
Expressed in %, but write only the number.

Query: inhibition; subject: `CCN1CCC(CC(=O)Nc2n[nH]c3nc(-c4cccs4)c(Br)cc23)CC1`
-1.09

Query: inhibition; subject: `COc1ccccc1Nc1ncc(-c2ccccc2)o1`
-0.7

Query: inhibition; subject: `COC(=O)Nc1nc2cc(Oc3ccc(NC(=O)Nc4cccc(C(=O)O)c4)cc3)ccc2[nH]1`
-3.37

Query: inhibition; subject: CC1=C(C(=O)Nc2ccc3[nH]ncc3c2)C(c2ccc3ccccc3c2)CC(=O)N1 (stereo not given)
4

Query: inhibition; subject: COc1ccc2cc(-c3c(-c4ccncc4)nc(-c4ccc([S+](C)[O-])cc4)n3C)ccc2c1 (stereo not given)
1.13

###

Molecular target: Tyrosine-protein kinase receptor TYRO3 (Homo sapiens) (UniProt Q06418);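 note: reported percentages are averaged inhibition values of TYRO3 kinase activity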
Sequence (whole entry): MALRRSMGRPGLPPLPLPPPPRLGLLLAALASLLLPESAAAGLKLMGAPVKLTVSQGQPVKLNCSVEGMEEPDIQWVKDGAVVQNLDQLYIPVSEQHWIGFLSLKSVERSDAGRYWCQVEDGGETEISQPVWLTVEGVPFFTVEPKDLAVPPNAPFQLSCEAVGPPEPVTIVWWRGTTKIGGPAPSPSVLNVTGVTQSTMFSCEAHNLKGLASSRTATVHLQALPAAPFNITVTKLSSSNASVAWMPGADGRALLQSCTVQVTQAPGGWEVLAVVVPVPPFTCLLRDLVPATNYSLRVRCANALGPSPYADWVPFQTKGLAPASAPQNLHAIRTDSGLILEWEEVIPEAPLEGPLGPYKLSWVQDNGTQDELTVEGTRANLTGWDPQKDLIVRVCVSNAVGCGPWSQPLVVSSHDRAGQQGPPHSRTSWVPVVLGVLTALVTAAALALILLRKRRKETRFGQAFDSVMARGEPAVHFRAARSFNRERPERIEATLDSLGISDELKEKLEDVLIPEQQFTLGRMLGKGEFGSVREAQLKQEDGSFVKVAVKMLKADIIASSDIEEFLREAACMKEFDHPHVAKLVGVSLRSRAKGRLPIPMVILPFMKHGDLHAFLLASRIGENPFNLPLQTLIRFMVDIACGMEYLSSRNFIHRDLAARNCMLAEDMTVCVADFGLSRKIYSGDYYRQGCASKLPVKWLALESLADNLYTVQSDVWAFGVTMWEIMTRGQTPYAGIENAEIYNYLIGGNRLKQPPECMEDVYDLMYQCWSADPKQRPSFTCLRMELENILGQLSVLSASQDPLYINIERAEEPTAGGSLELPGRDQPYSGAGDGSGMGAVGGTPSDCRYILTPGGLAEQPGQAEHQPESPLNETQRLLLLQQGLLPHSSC
Conditions: at 0.1 µM
Lab note: anything with inhibition at or over 2% counts as Met; the rest go in Not met.

Record `Cc1ccc(C(=O)NC2CCCCC2)cc1-c1ccc(C(=O)NCC2CC2)cc1` ; criterion: inhibition no lower than 2%. Met?
Not met

Record `COC(=O)Nc1nc2cc(Oc3ccc(NC(=O)Nc4cccc(C(=O)O)c4)cc3)ccc2[nH]1` ; criterion: inhibition no lower than 2%. Met?
Not met

Record `Fc1cccc(COc2ccc(Nc3ncnc4sc(-c5cccs5)cc34)cc2Cl)c1` ; criterion: inhibition no lower than 2%. Met?
Not met

Record `CC(C)=Cc1cccc2c1/C(=N/Nc1ccc(S(N)(=O)=O)cc1)C(=O)N2` ; criterion: inhibition no lower than 2%. Met?
Met

Record `Cc1ccc(NC(=O)c2ccnc(N3CCCC3)c2)cc1-c1ccc(C(=O)NCC2CC2)cc1` ; criterion: inhibition no lower than 2%. Met?
Met

Record `CNC(=O)c1cncc(/C=C/c2c(Cl)cccc2Cl)c1` ; criterion: inhibition no lower than 2%. Met?
Not met
